Data provenance: ChEMBL document CHEMBL5352502

test protocol: Cytotoxicity against BALB/c mouse peritoneal macrophage assessed as cell proliferation at 20 ug for 48 hrs by MTT assay relative to control
Format: toxicity, cell-based
run conditions: peritoneal macrophages, at 20 µg, read-out: Activity
quantity kind: viability at 48 h, 20 ug

chemical_smiles=CCCCCCCCCCCCn1nnc([C@@H](CCC(=O)O)NC(=O)[C@H](C)NC(=O)[C@@H](C)O[C@H]2[C@H](O)[C@@H](CO)O[C@H](O)[C@@H]2NC(C)=O)n1 result_value="< 140%"
